- assay_text: physchem
- experimental_conditions: aqueous pH solution systems (pH solubility profile), 37 °C, aqueous buffer, thermodynamic from solid
readout_label: solubility at 72 h (µg/mL)
Quick note: give the figure in µg/mL, leave out the unit.

Record summary for `CCCSc1ccc2nc(NC(=O)OC)[nH]c2c1` : reported solubility at 72 h = 12

====

- assay_text: Equilibrium solubility by shake flask method
- Type: physicochemical
- experimental_conditions: FaSSIF, 37 °C, pH 6.5, fassif, thermodynamic from solid, FaSSIF; read-out: solubility
readout_label: solubility at 72 h (µg/mL)
Quick note: give the figure in µg/mL, leave out the unit.

Record summary for `CCCSc1ccc2nc(NC(=O)OC)[nH]c2c1` : reported solubility at 72 h = 8.2

====

- assay_text: Equilibrium solubility by shake flask method
- Type: physicochemical
- experimental_conditions: FaSSGF, 37 °C, pH 1.6, fassgf or other biorelevant, thermodynamic from solid, FaSSGF; read-out: solubility
readout_label: solubility at 72 h

Record summary for `CCCSc1ccc2nc(NC(=O)OC)[nH]c2c1` : reported solubility at 72 h = ~146 µg/mL

====

- assay_text: Equilibrium solubility by shake flask method
- Assay type: physicochemical
- experimental_conditions: FeSSIF, pH 5, FeSSIF; read-out: solubility
readout_label: solubility at 72 h

Record summary for `CCCSc1ccc2nc(NC(=O)OC)[nH]c2c1` : reported solubility at 72 h = ~20.5 µg/mL

====

- assay_text: Equilibrium solubility by shake flask method
- Type: physicochemical
- experimental_conditions: 0.1 N HCl, 37 °C, pH 1.2, simulated gastric fluid, thermodynamic from solid, pH 1.2; read-out: maximum solubility
readout_label: solubility at 72 h

Record summary for `CCCSc1ccc2nc(NC(=O)OC)[nH]c2c1` : reported solubility at 72 h = ~500 µg/mL

====

- assay_text: Equilibrium solubility by shake flask method
- Assay type: physicochemical
- experimental_conditions: 0.05 M phosphate buffer, 37 °C, pH 6.8, aqueous buffer, thermodynamic from solid, pH 6.8 Phosphate buffer, 37 ± 2.0 °C; read-out: Solubility
readout_label: solubility at 72 h (µg/mL)
Quick note: give the figure in µg/mL, leave out the unit.

Record summary for `CCCSc1ccc2nc(NC(=O)OC)[nH]c2c1` : reported solubility at 72 h = 5

====

- assay_text: Equilibrium solubility by shake flask method
- Type: physicochemical
- experimental_conditions: 0.05 M phosphate buffer, 37 °C, pH 6.8, aqueous buffer, thermodynamic from solid, pH 6.8; read-out: solubility
readout_label: solubility at 72 h

Record summary for CCCSc1ccc2nc(NC(=O)OC)[nH]c2c1 [ABZ, Albendazole] : reported solubility at 72 h = ~5 µg/mL

====

- assay_text: Equilibrium solubility by shake flask method
- Type: physicochemical
- experimental_conditions: FaSSGF, 37 °C, pH 1.6, fassgf or other biorelevant, thermodynamic from solid, FaSSGF (pH 1.6), 37 ± 2.0 °C; read-out: Solubility
readout_label: solubility at 72 h (µg/mL)
Quick note: give the figure in µg/mL, leave out the unit.

Record summary for `CCCSc1ccc2nc(NC(=O)OC)[nH]c2c1` : reported solubility at 72 h = 146

====

- assay_text: Equilibrium solubility by shake flask method
- Type: physicochemical
- experimental_conditions: FaSSIF, 37 °C, pH 6.5, fassif, thermodynamic from solid, FaSSIF (pH 6.5), 37 ± 2.0 °C; read-out: Solubility
readout_label: solubility at 72 h (µg/mL)
Quick note: give the figure in µg/mL, leave out the unit.

Record summary for CCCSc1ccc2nc(NC(=O)OC)[nH]c2c1 [ABZ, Albendazole] : reported solubility at 72 h = 8

====

- assay_text: Equilibrium solubility by shake flask method
- Format: physicochemical
- experimental_conditions: FeSSIF, pH 5, FeSSIF (pH 5.0), 37 ± 2.0 °C; read-out: Solubility
readout_label: solubility at 72 h (µg/mL)
Quick note: give the figure in µg/mL, leave out the unit.

Record summary for `CCCSc1ccc2nc(NC(=O)OC)[nH]c2c1` : reported solubility at 72 h = 21

====

- assay_text: Equilibrium solubility by shake flask method
- Format: physicochemical
- experimental_conditions: 0.02 M acetate buffer, 37 °C, pH 4.5, aqueous buffer, thermodynamic from solid, pH 4.5 Acetate buffer, 37 ± 2.0 °C; read-out: Solubility
readout_label: solubility at 72 h
Report as: number unit

Record summary for `CCCSc1ccc2nc(NC(=O)OC)[nH]c2c1` : reported solubility at 72 h = 8 µg/mL

====

- assay_text: Equilibrium solubility by shake flask method
- Format: physicochemical
- experimental_conditions: 0.1 N HCl, pH 2, pH 2.0 HCl buffer, 37 ± 2.0 °C; read-out: Solubility
- Method: The equilibrium solubility of ABZ was measured by the shake flask method at 37 ± 2 °C in different pH solution systems: 0.1 N HCl (pH 1.20 ± 0.01 and pH 2.0 ± 0.01), 0.02 M acetate buffer (pH 4.5 ± 0.02), and 0.05 M phosphate buffer (pH 6.8 ± 0.01). Solubility was also determined in FaSSGF (pH 1.6 ± 0.01), FaSSIF (pH 6.5 ± 0.01), and FeSSIF (pH 5.0 ± 0.01) containing bile concentrations of 0.08 mM, 3 mM, and 15 mM, respectively. […]
readout_label: solubility at 72 h (µg/mL)
Quick note: give the figure in µg/mL, leave out the unit.

Record summary for `CCCSc1ccc2nc(NC(=O)OC)[nH]c2c1` : reported solubility at 72 h = 25
